Provide the reported log10 CC50 of each item.
# Test system: HeLa
# Assay: SRB colorimetric cell growth inhibition assay, HeLa
# Format: cell-based
# Particulars: Homo sapiens, HeLa; cell killing (cytotoxic effect); read-out: LC50 HELA
All values: log10 CC50 [µM].

I would be grateful if you could share the reported log10 CC50 for COc1cc(-c2c3c4cc(OC)c(OC(=O)CCC5CCCCC5)cc4oc(=O)c3n3ccc4cc(OC(=O)CCC5CCCCC5)c(OC)cc4c23)ccc1OC(=O)CCC1CCCCC1 [Compound 12] .
1.04

I would be grateful if you could share the reported log10 CC50 for COc1cc(-c2c3n(c4c(=O)oc5cc(OC(=O)CCc6ccccc6)c(OC)cc5c24)CCc2cc(OC(=O)CCc4ccccc4)c(OC)cc2-3)ccc1OC(=O)CCc1ccccc1 [Compound 11] .
1.05

I would be grateful if you could share the reported log10 CC50 for COc1cc(-c2c3c4cc(OC)c(OC(=O)CCc5ccccc5)cc4oc(=O)c3n3ccc4cc(OC(=O)CCc5ccccc5)c(OC)cc4c23)ccc1OC(=O)CCc1ccccc1 [Compound 8] .
0.90

I would be grateful if you could share the reported log10 CC50 for COc1cc(-c2c3c4cc(OC)c(OC(C)C)cc4oc(=O)c3n3ccc4c(OC(C)C)c(OC)c(OC)cc4c23)ccc1OC(C)C [Compound 27] .
1.18

I would be grateful if you could share the reported log10 CC50 for COc1cc2c(cc1O)CCn1c-2c(Br)c2c3cc(OC)c(O)cc3oc(=O)c21 [Compound 188] .
1.34

I would be grateful if you could share the reported log10 CC50 for C=CCOC(=O)N[C@@H](C)C(=O)Oc1ccc(-c2c3c4cc(OC)c(OC(=O)[C@H](C)NC(=O)OCC=C)cc4oc(=O)c3n3ccc4cc(OC(=O)[C@H](C)NC(=O)OCC=C)c(OC)cc4c23)cc1OC [Compound 210] .
1.02

I would be grateful if you could share the reported log10 CC50 for COc1cc(-c2c3c4cc(OC)c(OC(=O)[C@@H](N)Cc5ccccc5)cc4oc(=O)c3n3ccc4c(OC(=O)[C@@H](N)Cc5ccccc5)c(OC)c(OC)cc4c23)ccc1OC(=O)[C@@H](N)Cc1ccccc1 [Compound 207] .
0.52

I would be grateful if you could share the reported log10 CC50 for COc1cc(-c2c3c4cc(OC)c(OC(=O)[C@@H](N)C(C)C)cc4oc(=O)c3n3ccc4cc(OC(=O)[C@@H](N)C(C)C)c(OC)cc4c23)ccc1OC(=O)[C@@H](N)C(C)C [Compound 195] .
-0.20

I would be grateful if you could share the reported log10 CC50 for COc1cc2c(cc1O)oc(=O)c1c2c(-c2cccc([N+](=O)[O-])c2)c2c3cc(OC)c(O)cc3ccn21 [Compound 221] .
1.30

I would be grateful if you could share the reported log10 CC50 for COc1cc(-c2c3c4cc(OC)c(O)cc4oc(=O)c3n3ccc4c(N)cccc4c23)ccc1O [Compound 182] .
1.33

---

# System: HT-29
# Assay: SRB colorimetric cell growth inhibition assay, HT-29
# Format: cell-based
# Particulars: HT-29; GI=growth inhibition; read-out: GI50 HT-29
Provide the reported GI50 of each item.
Just the number please, in nM, no unit attached.

I would be grateful if you could share the reported GI50 for COc1cc(-c2c3c4cc(OC)c(OC(=O)[C@H](C)N)cc4oc(=O)c3n3ccc4c(OC(=O)[C@H](C)N)c(OC)c(OC)cc4c23)ccc1OC(=O)[C@H](C)N [Compound 16] .
411

I would be grateful if you could share the reported GI50 for COc1cc(-c2c3c4cc(OC)c(OC(=O)[C@H](C)N)cc4oc(=O)c3n3ccc4cc(O)c(OC)cc4c23)ccc1O.Cl .
1640

I would be grateful if you could share the reported GI50 for COc1cc(-c2c3c4cc(OC)c(OC(=O)[C@@H](N)Cc5ccccc5)cc4oc(=O)c3n3ccc4c(OC(=O)[C@@H](N)Cc5ccccc5)c(OC)c(OC)cc4c23)ccc1OC(=O)[C@@H](N)Cc1ccccc1 [Compound 207] .
3770

I would be grateful if you could share the reported GI50 for COc1cc(-c2c3n(c4c(=O)oc5cc(OS(C)(=O)=O)c(OC)cc5c24)CCc2cc(OS(C)(=O)=O)c(OC)cc2-3)ccc1OS(C)(=O)=O .
879

I would be grateful if you could share the reported GI50 for COc1cc2ccn3c(c(-c4ccc(OC(=O)[C@@H](N)Cc5ccccc5)c(OC)c4)c4c5cc(OC)c(OC(=O)[C@@H](N)Cc6ccccc6)cc5oc(=O)c43)c2cc1OC [Compound 13] .
3220
